procedure_summary: Serum concentration and pharmacokinetics of SCI after oral gavage in Wistar rats
Format: in vivo, Wistar rat
measurement_context: male, Wistar, rat, serum, po, 10 mg/kg, Concentration of SCI in serum, Rat No. 1; time 1.5 h; oral 10 mg/kg
assay_readout: concentration at 1.5 h (ng/mL)
Your answer is read as ng/mL, so omit the unit and give the number.

Could you share which concentration at 1.5 h value was measured for O[C@H]1[C@H](O)[C@@H](O)[C@H](O)[C@@H](O)[C@@H]1O ?
7200

----------
procedure_summary: Serum concentration and pharmacokinetics of SCI after oral gavage in Wistar rats
Type: in vivo, Wistar rat
measurement_context: male, Wistar, rat, serum, po, 10 mg/kg, Mean of rats 4–6 ± SEM; oral 10 mg/kg
assay_readout: Tmax (h)
# unit: h | format: bare number

Give its Tmax value. Item: O[C@H]1[C@H](O)[C@@H](O)[C@H](O)[C@@H](O)[C@@H]1O [SCI, scyllo-inositol]
2.67
